I'd be grateful if you could share measured MIC for these entries.
# System: Strep. agalactiae SPA1
# experiment: MIC against veterinary bacteria in vitro
# setup.conditions: Streptococcus agalactiae, SPA1, 18 h
Write the answer as a number in µg/mL, unit excluded.

INPUT: Requested read-out: MIC. Entry: CSc1ccc(-c2cnc(/C=C(\C)C[C@@H]3OC[C@H](C[C@@H]4O[C@H]4[C@@H](C)[C@H](C)O)[C@@H](O)[C@H]3O)o2)cc1
OUTPUT: 10

INPUT: Let us now turn to C/C(=C\c1ncc(-c2ccccc2)o1)C[C@@H]1OC[C@H](C[C@@H]2O[C@H]2[C@@H](C)[C@H](C)O)[C@@H](O)[C@H]1O
OUTPUT: 1.25

INPUT: Let us now turn to C/C(=C\c1ncc(-c2ccc(Br)s2)o1)C[C@@H]1OC[C@H](C[C@@H]2O[C@H]2[C@@H](C)[C@H](C)O)[C@@H](O)[C@H]1O
OUTPUT: 1.25

INPUT: Let us now turn to COC(=O)c1ccc(-c2cnc(/C=C(\C)C[C@@H]3OC[C@H](C[C@@H]4O[C@H]4[C@@H](C)[C@H](C)O)[C@@H](O)[C@H]3O)o2)cc1
OUTPUT: 1.25

* * *

# Test system: M. bovigenitalium ATCC 14173
# experiment: MIC against mycoplasma in vitro
# Format: cell-based
# setup.conditions: 144 h
measurement.type: MIC

INPUT: // lookup MIC | system=M. bovigenitalium ATCC 14173 | key= C/C(=C\c1ncc(-c2ccc(C#N)cc2)o1)C[C@@H]1OC[C@H](C[C@@H]2O[C@H]2[C@@H](C)[C@H](C)O)[C@@H](O)[C@H]1O
OUTPUT: 0.05 µg/mL

INPUT: Let us now turn to C/C(=C\c1ncc(-c2ccc(Br)cc2)o1)C[C@@H]1OC[C@H](C[C@@H]2O[C@H]2[C@@H](C)[C@H](C)O)[C@@H](O)[C@H]1O
OUTPUT: 0.1 µg/mL

INPUT: Let us now turn to CSc1ccc(-c2cnc(/C=C(\C)C[C@@H]3OC[C@H](C[C@@H]4O[C@H]4[C@@H](C)[C@H](C)O)[C@@H](O)[C@H]3O)o2)cc1
OUTPUT: 0.1 µg/mL

INPUT: Let us now turn to C/C(=C\c1ncc(-c2ccsc2)o1)C[C@@H]1OC[C@H](C[C@@H]2O[C@H]2[C@@H](C)[C@H](C)O)[C@@H](O)[C@H]1O
OUTPUT: 0.05 µg/mL

INPUT: Let us now turn to C/C(=C\c1ncc(-c2ccc(Br)s2)o1)C[C@@H]1OC[C@H](C[C@@H]2O[C@H]2[C@@H](C)[C@H](C)O)[C@@H](O)[C@H]1O
OUTPUT: 0.1 µg/mL

INPUT: Let us now turn to C/C(=C\c1cc(-c2ccccc2)on1)C[C@@H]1OC[C@H](C[C@@H]2O[C@H]2[C@@H](C)[C@H](C)O)[C@@H](O)[C@H]1O
OUTPUT: 1 µg/mL

INPUT: Let us now turn to COc1ccc(-c2cnc(/C=C(\C)C[C@@H]3OC[C@H](C[C@@H]4O[C@H]4[C@@H](C)[C@H](C)O)[C@@H](O)[C@H]3O)o2)cc1
OUTPUT: 0.05 µg/mL

INPUT: Let us now turn to C/C(=C\c1ncc(-c2ccc(CO)cc2)o1)C[C@@H]1OC[C@H](C[C@@H]2O[C@H]2[C@@H](C)[C@H](C)O)[C@@H](O)[C@H]1O
OUTPUT: 0.025 µg/mL

INPUT: Let us now turn to C/C(=C\c1ncc(-c2cccc(S(C)(=O)=O)c2)o1)C[C@@H]1OC[C@H](C[C@@H]2O[C@H]2[C@@H](C)[C@H](C)O)[C@@H](O)[C@H]1O
OUTPUT: 0.1 µg/mL

INPUT: Let us now turn to C/C(=C\c1ncc(CCCCCCCCO)o1)C[C@@H]1OC[C@H](C[C@@H]2O[C@H]2[C@@H](C)[C@H](C)O)[C@@H](O)[C@H]1O
OUTPUT: 0.1 µg/mL

* * *

# Tested on: Past. multocida PA2
# experiment: MIC against veterinary bacteria in vitro
# setup.conditions: Pasteurella multocida, PA2, 18 h
I'd be grateful if you could share measured MIC for these entries.
Write the answer as a number in µg/mL, unit excluded.

INPUT: Requested read-out: MIC. Entry: C/C(=C\c1ncc(-c2cccc([N+](=O)[O-])c2)o1)C[C@@H]1OC[C@H](C[C@@H]2O[C@H]2[C@@H](C)[C@H](C)O)[C@@H](O)[C@H]1O
OUTPUT: 1.25

INPUT: Let us now turn to C/C(=C\c1ncc(C)o1)C[C@@H]1OC[C@H](C[C@@H]2O[C@H]2[C@@H](C)[C@H](C)O)[C@@H](O)[C@H]1O
OUTPUT: 10

INPUT: Let us now turn to C/C(=C\c1ncc(CCCCCCCC(=O)O)o1)C[C@@H]1OC[C@H](C[C@@H]2O[C@H]2[C@@H](C)[C@H](C)O)[C@@H](O)[C@H]1O
OUTPUT: 0.156

INPUT: Let us now turn to C/C(=C\c1ncc(-c2ccc(Br)cc2)o1)C[C@@H]1OC[C@H](C[C@@H]2O[C@H]2[C@@H](C)[C@H](C)O)[C@@H](O)[C@H]1O
OUTPUT: 1.25

INPUT: Let us now turn to C/C(=C/c1ncc(-c2ccccc2)o1)C[C@@H]1OC[C@H](C[C@@H]2O[C@H]2[C@@H](C)[C@H](C)O)[C@@H](O)[C@H]1O
OUTPUT: 20

INPUT: Let us now turn to C/C(=C\c1nc(C)c(-c2ccccc2)o1)C[C@@H]1OC[C@H](C[C@@H]2O[C@H]2[C@@H](C)[C@H](C)O)[C@@H](O)[C@H]1O
OUTPUT: 80

* * *

# System: Past. multocida PA2
# experiment: MIC against veterinary bacteria in vitro
# setup.conditions: Pasteurella multocida, PA2, 18 h
measurement.type: MIC (mg/L)
Write the answer as a number in mg/L, unit excluded.

INPUT: Requested read-out: MIC. Entry: C/C(=C\c1nc(C)c(C)o1)C[C@@H]1OC[C@H](C[C@@H]2O[C@H]2[C@@H](C)[C@H](C)O)[C@@H](O)[C@H]1O [Example 39, 4,5-Dimethyl-2-(1-normon-2-yl)oxazole A]
OUTPUT: 40

INPUT: Let us now turn to C/C(=C\c1ncc(-c2ccc(S(=O)(=O)N(C)C)cc2)o1)C[C@@H]1OC[C@H](C[C@@H]2O[C@H]2[C@@H](C)[C@H](C)O)[C@@H](O)[C@H]1O [Example 24]
OUTPUT: 2.5

INPUT: Let us now turn to C/C(=C\c1ncc(-c2cccc(S(C)(=O)=O)c2)o1)C[C@@H]1OC[C@H](C[C@@H]2O[C@H]2[C@@H](C)[C@H](C)O)[C@@H](O)[C@H]1O [Example 23]
OUTPUT: 2.5

INPUT: Let us now turn to C/C(=C\c1ncc(-c2ccc(C#N)cc2)o1)C[C@@H]1OC[C@H](C[C@@H]2O[C@H]2[C@@H](C)[C@H](C)O)[C@@H](O)[C@H]1O [Example 21]
OUTPUT: 0.625

INPUT: Let us now turn to C/C(=C\c1ncc(-c2ccc(CO)cc2)o1)C[C@@H]1OC[C@H](C[C@@H]2O[C@H]2[C@@H](C)[C@H](C)O)[C@@H](O)[C@H]1O [Example 13]
OUTPUT: 0.312

* * *

I'd be grateful if you could share measured MIC for these entries.
# Tested on: M. suipneumoniae NB12
# experiment: MIC against mycoplasma in vitro
# Assay type: cell-based
# setup.conditions: Mesomycoplasma hyopneumoniae, NB12, 144 h

INPUT: Requested read-out: MIC. Entry: C/C(=C\c1ncc(-c2cccc([S+](C)[O-])c2)o1)C[C@@H]1OC[C@H](C[C@@H]2O[C@H]2[C@@H](C)[C@H](C)O)[C@@H](O)[C@H]1O (some centres unmarked) [Example 25]
OUTPUT: 0.25 µg/mL

INPUT: Let us now turn to COc1ccc(-c2cnc(/C=C(\C)C[C@@H]3OC[C@H](C[C@@H]4O[C@H]4[C@@H](C)[C@H](C)O)[C@@H](O)[C@H]3O)o2)cc1 [Example 4]
OUTPUT: 0.5 µg/mL

INPUT: Let us now turn to C/C(=C\c1ncc(-c2ccc(S(C)(=O)=O)cc2)o1)C[C@@H]1OC[C@H](C[C@@H]2O[C@H]2[C@@H](C)[C@H](C)O)[C@@H](O)[C@H]1O [Example 10]
OUTPUT: 0.05 µg/mL

INPUT: Let us now turn to C/C(=C\c1cc(-c2ccccc2)on1)C[C@@H]1OC[C@H](C[C@@H]2O[C@H]2[C@@H](C)[C@H](C)O)[C@@H](O)[C@H]1O [Example 34, 3-(1-Normon-2-yl)-5-phenylisoxazole A]
OUTPUT: 2.5 µg/mL

INPUT: Let us now turn to C/C(=C\c1ncc(CCCCCCCCO)o1)C[C@@H]1OC[C@H](C[C@@H]2O[C@H]2[C@@H](C)[C@H](C)O)[C@@H](O)[C@H]1O [Example 19]
OUTPUT: 1 µg/mL

INPUT: Let us now turn to C/C(=C\c1ncc(C)o1)C[C@@H]1OC[C@H](C[C@@H]2O[C@H]2[C@@H](C)[C@H](C)O)[C@@H](O)[C@H]1O [Example 14, 5-Methyl-2-(1-normon-2-yl) oxazole A]
OUTPUT: 5 µg/mL

INPUT: Let us now turn to C/C(=C\c1ncc(-c2ccc(C(=O)O)cc2)o1)C[C@@H]1OC[C@H](C[C@@H]2O[C@H]2[C@@H](C)[C@H](C)O)[C@@H](O)[C@H]1O [Example 17]
OUTPUT: 2.5 µg/mL

INPUT: Let us now turn to CSc1cccc(-c2cnc(/C=C(\C)C[C@@H]3OC[C@H](C[C@@H]4O[C@H]4[C@@H](C)[C@H](C)O)[C@@H](O)[C@H]3O)o2)c1 [Example 22]
OUTPUT: 1 µg/mL

INPUT: Let us now turn to C/C(=C\c1ncc(-c2ccc(C#N)cc2)o1)C[C@@H]1OC[C@H](C[C@@H]2O[C@H]2[C@@H](C)[C@H](C)O)[C@@H](O)[C@H]1O [Example 21]
OUTPUT: 0.25 µg/mL

INPUT: Let us now turn to C/C(=C\c1ncc(-c2cccc([N+](=O)[O-])c2)o1)C[C@@H]1OC[C@H](C[C@@H]2O[C@H]2[C@@H](C)[C@H](C)O)[C@@H](O)[C@H]1O [Example 6]
OUTPUT: 0.05 µg/mL

INPUT: Let us now turn to CSc1ccc(-c2cnc(/C=C(\C)C[C@@H]3OC[C@H](C[C@@H]4O[C@H]4[C@@H](C)[C@H](C)O)[C@@H](O)[C@H]3O)o2)cc1 [Example 9]
OUTPUT: 0.5 µg/mL
